# runDescription: Inhibition Assay: LOX and LOXL2: Lysyl oxidase (LOX) is an extracellular copper dependent enzyme which oxidizes peptidyl lysine and hydroxylysine residues in collagen and lysine residues in elastin to produce peptidyl alpha-aminoadipic-delta-semialdehydes. […] There are five LOX family members; these are LOX, LOXL1, LOXL2, LOXL3 and LOXL4. LOX and LOXL family members can be acquired as recombinant active proteins from commercial sources, or extracted from animal tissues like bovine aorta, tendons, pig skin; or prepared from cell cultures. The inhibitory effects of the compounds of the present invention were tested against the given LOX-LOXL preparation using a high-throughput coupled colorimetric method (Holt A. and Palcic M., A peroxidase-coupled continuous absorbance plate-reader assay for flavin monoamine oxidases, copper-containing amine oxidases and related enzymes. Nat. Protoc. 2006; 1: 2498-2505). The assay was developed using either 384 or 96 well format. Briefly, in a standard 384 well plate assay 25 μL of a dilution of any of the isoenzymes and orthologues in 1.2 M urea, 50 mM sodium borate buffer (pH 8.2) were added into each well in the presence of 1 μM mofegiline and 0.5 mM pargyline (to inhibit SSAO and MAO-B and MAO-A, respectively). Test compounds were dissolved in DMSO and tested in a Concentration Response Curve (CRC) with 11 data points, typically in the micromolar or nanomolar range after incubation with the enzyme for 30 min at 37° C. Twenty five L of a reaction mixture containing twice the KM concentration of putrescine (Sigma Aldrich, e.g. 20 mM for LOX, or 10 mM for LOXL2 and LOXL3), 120 μM Amplex Red (Sigma Aldrich) and 1.5 U/mL horseradish peroxidase (Sigma Aldrich) prepared in 1.2 M urea, 50 mM sodium borate buffer (pH 8.2) were then added to the corresponding wells. The above volumes were doubled in the case of 96 wells plate.
pIC50: −log10 of the molar value.
readoutKind: pIC50

Cc1c(-c2cccc(S(=O)(=O)N(C)C)c2)c2cc(C(=O)N(C)C)ccc2n1C/C(F)=C/CN ... < 6.52
Cc1c(-c2cccc(S(=O)(=O)N(C)C)c2)c2nc(C(=O)N(C)C)ccc2n1C/C(F)=C/CN ... < 6.52
